The origin of these recorded values is the supplement of paper PMC10567573.

B1: RPAIN (parent)
chain: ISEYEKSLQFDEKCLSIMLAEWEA

- Variants of: B1
- experimental protocol: protein stability index of a GFP-peptide fusion (GPS, HEK-293T) (PSI 1-6); higher = more stable;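 note: lentivirally expressed fusions sorted by FACS into six bins by GFP to DsRed ratio, PSI derived from sequencing read proportions per bin multiplied by bin number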
- conditions: c terminus: a fixed tail appended
measured endpoint: protein stability index

E21T    3.61
C14Q    2.24
Q9T    1.86
S2D    1.97
W22S    2.11

Form field protein stability index, entry L8P : 2.97

Form field protein stability index, entry L19E : 4.02

Form field protein stability index, entry A20V : 1.8
